Provenance of the data: ChEMBL document CHEMBL3232989

assay_notes: Cytotoxicity against human KB cells assessed growth inhibition at 10 uM after 72 hrs by MTS assay
Type: cell-based
settings: read-out: GI
inhibition at 72 h, 10 µM of 1% or higher: class 1. Under 1%: class 0.

Previously resolved entries follow.
smiles_repr	group
O=Cc1ccc(B(O)O)cc1Cl	class 1
CCOc1ccc(B(O)O)cn1	class 0
OB(O)c1ccc(Cl)cc1	class 0

Query molecule follows.
Inquiry: // inclusive: inhibition at 72 h, 10 µM at least 1%? input: CC(=O)OCc1ccc(B(OC(C)(C)C(C)(C)O)OC(C)(C)C(C)(C)O)cc1
Reply text: class 1

* * *

study_target: Quinolone resistance protein NorA (Staphylococcus aureus)
assay_notes: Inhibition of NorA in fluoroquinolone-resistant Staphylococcus aureus 1199B assessed as potentiation of 4 ug/ml of ciprofloxacin MIC at 100 ug/ml after 24 hrs by microdilution method
Mark yes for reported Activity of 30 µg/mL or greater; mark no for anything smaller.

As a guide, the following entries are already answered.
smiles_repr	group
CCOc1ncccc1B(O)O	yes
Oc1ccc(Cl)nc1	yes
OB(O)c1cccnc1	yes
OB(O)c1ccnc(Cl)c1Cl	yes
CC(C)(O)C(C)(C)OB(OC(C)(C)C(C)(C)O)c1ccncc1Br	yes

Inquiry: Please check the record CC(C)(O)C(C)(C)OB(OC(C)(C)C(C)(C)O)c1ccnc(Cl)c1Cl and state if its Activity is at or above 30 µg/mL.
Reply text: yes

Inquiry: Could you tell me if the measured Activity of CC(C)(O)C(C)(C)OB(OC(C)(C)C(C)(C)O)c1ccc(NCc2ccccc2)nc1 reaches 30 µg/mL or more?
Reply text: yes

Inquiry: I'd appreciate it if you could say whether CC(C)(O)C(C)(C)OB(OC(C)(C)C(C)(C)O)c1cccnc1F has Activity at least equal to 30 µg/mL.
Reply text: yes

Inquiry: Decide: Activity of OB(O)c1ccc(Oc2cccnc2)nc1 >= 30 µg/mL?
Reply text: yes

Inquiry: Does the compound CCOC(=O)c1ccccc1B(O)O have recorded Activity that is 30 µg/mL or more?
Reply text: yes

Inquiry: Exam item: decide whether the reported Activity for OB(O)c1ccc(Cl)cc1 is at least 30 µg/mL.
Reply text: no

Inquiry: # bool: Activity of CC(C)(O)C(C)(C)OB(OC(C)(C)C(C)(C)O)c1cc(Cl)ncc1Cl >= 30 µg/mL
Reply text: yes

* * *

So I've got a bunch of compounds here, and I need their Activity values.
study_target: Quinolone resistance protein NorA (Staphylococcus aureus) (UniProt P0A0J7)
assay_notes: Inhibition of NorA in fluoroquinolone-resistant Staphylococcus aureus 1199B assessed as potentiation of 4 ug/ml of ciprofloxacin MIC at 100 ug/ml after 24 hrs by microdilution method
Answers are plain numbers, in µg/mL.

Some compounds with recorded Activity:
smiles_repr	scale_unit	Activity
CC1(C)OB(c2ccc3c(cnn3COCC[Si](C)(C)C)c2)OC1(C)C	µg/mL	16
Cc1c[nH]nc1B(O)O	µg/mL	64
OB(O)c1ccc(Br)nc1	µg/mL	8
O=Cc1ccc2ccccc2c1	µg/mL	64
OB(O)c1cc(Br)cnc1F	µg/mL	128

Kindly give each listed record's Activity.
1. CC(=O)n1nc(C)c2cc(B3OC(C)(C)C(C)(C)O3)ccc21
2. Cc1cc(B(O)O)cnc1Cl
3. COc1ccc(B(O)O)cn1
4. Cc1cc(B(O)O)ccc1Cl
5. CC(C)Nc1ccc(B(O)O)cc1
6. CC(C)(O)C(C)(C)OB(OC(C)(C)C(C)(C)O)c1ccc(Cl)nc1

Reply text:
1. 128
2. 4
3. 4
4. 2
5. 64
6. 128

Dear colleague, could you please provide Activity for the compounds listed below?
1. OB(O)c1cccnc1F
2. Cc1cccc(O)c1Cl
3. Cn1c(B2OC(C)(C)C(C)(C)O2)cnc1Cl
4. CC(C)(O)C(C)(C)OB(OC(C)(C)C(C)(C)O)c1cc(Br)cnc1F
5. Cc1c(B(O)O)ccc2ccccc12

Reply text:
8
64
128
64
8

Inquiry: Please look at this compound and report its Activity: CC(=O)n1ncc2c(B3OC(C)(C)C(C)(C)O3)cccc21
Reply text: 8

* * *

Answer each item with its documented log10(Activity).
study_target: Quinolone resistance protein NorA (Staphylococcus aureus)
assay_notes: Inhibition of NorA in fluoroquinolone-resistant Staphylococcus aureus 1199B assessed as potentiation of 4 ug/ml of ciprofloxacin MIC at 100 ug/ml after 24 hrs by microdilution method
Hello, just confirming the data are log10 of Activity with units of µg/mL.

Reference set (10 entries):
molecule	endpoint_value
OB(O)c1cc(Br)cnc1Cl	1.51
O=C(O)c1cnc2ccccc2c1	1.51
OB(O)c1ccc(OCc2ccccc2)cc1	-0.30
OB(O)c1ccc(Br)cc1	0.30
OB(O)c1ccsc1	0.90
Cc1cc(B(O)O)cnc1Br	1.51
CC(C)(O)C(C)(C)OB(OC(C)(C)C(C)(C)O)c1ccnc(Cl)c1	2.11
CC1(C)OB(c2cnn(C(=O)c3ccccc3)c2)OC1(C)C	2.11
CC(C)(O)C(C)(C)OB(OC(C)(C)C(C)(C)O)c1ccc(Br)nc1	0.90
OB(O)c1ccnc(F)c1Cl	1.20

For each of the molecules below, note its log10(Activity).
1. COC(=O)[C@H]1[C@H]2C[C@@H]3c4[nH]c5cc(OC)ccc5c4CCN3C[C@H]2C[C@@H](OC(=O)c2cc(OC)c(OC)c(OC)c2)[C@@H]1OC [RESERPINE]
2. O=Cc1ccc(B(O)O)cc1Cl
3. OB(O)c1ccc(F)nc1
4. OB(O)c1ccccc1F
5. Cn1nccc1B1OC(C)(C)C(C)(C)O1
6. OB(O)c1cc(Cl)ncc1Cl
7. CCOc1ccc(B(OC(C)(C)C(C)(C)O)OC(C)(C)C(C)(C)O)cn1
8. Cc1cc(B(OC(C)(C)C(C)(C)O)OC(C)(C)C(C)(C)O)cnc1Cl

Reply text:
1. 0.60
2. 0.60
3. 1.51
4. 1.20
5. 0.90
6. 1.81
7. 2.11
8. 1.51

* * *

Test system: Staphylococcus aureus
assay_notes: Toxicity in Staphylococcus aureus ATCC 25923 at 100 ug/ml after 24 hrs by microdilution method
Format: organism-based
For each entry below, report its growth inhibition (GI) value.

Previously resolved entries follow.
smiles_repr	endpoint_value
CC1(C)OB(c2cnn(C(=O)c3ccccc3)c2)OC1(C)C	< 90%
CC(C)(O)C(C)(C)OB(OC(C)(C)C(C)(C)O)c1ccnc(Cl)c1Cl	< 90%
CC(=O)n1ncc2c(B3OC(C)(C)C(C)(C)O3)cccc21	< 90%
OB(O)c1cccnc1F	< 90%
CC(=O)n1nc(C)c2cc(B3OC(C)(C)C(C)(C)O3)ccc21	< 90%
CSc1ncccc1B(O)O	< 90%
Cc1cc(B(O)O)cnc1Br	< 90%
CC(C)(O)C(C)(C)OB(OC(C)(C)C(C)(C)O)c1ccc(Br)nc1	< 90%

# return growth inhibition (GI) for each item in the list
1. O=C(O)c1ccc(B(O)O)cc1
2. CC(C)(O)C(C)(C)OB(OC(C)(C)C(C)(C)O)c1cc(Br)cnc1Cl

Reply text:
< 90%
< 90%

* * *

System: Staphylococcus aureus
assay_notes: Toxicity in fluoroquinolone-resistant Staphylococcus aureus 1199B expressing NorA at 100 ug/ml after 24 hrs by microdilution method
Type: organism-based
value_kind: growth inhibition (GI)

The examples below pair each entry with its known result.
smiles_repr	growth inhibition (GI)
CC1(C)OB(c2cnn(C(=O)c3ccccc3)c2)OC1(C)C	< 90%
CC(C)(O)C(C)(C)OB(OC(C)(C)C(C)(C)O)c1ccc(OCc2ccccc2)nc1	< 90%
Cc1cc(B(O)O)cnc1N1CCOCC1	< 90%
CC(=O)OCc1ccc(B(OC(C)(C)C(C)(C)O)OC(C)(C)C(C)(C)O)cc1	< 90%

Record growth inhibition (GI) per entry; entries follow.
1. OB(O)c1ccccc1-c1ccccc1
2. N#Cc1c(B(O)O)ccnc1Cl

Reply text:
1. < 90%
2. < 90%

* * *

Test system: Staphylococcus aureus
assay_notes: Toxicity in fluoroquinolone-resistant Staphylococcus aureus 1199B expressing NorA after 24 hrs by microdilution method
Assay type: organism-based
settings: in vitro
value_kind: MIC

Would you please look over these solved cases?
smiles_repr	MIC
CC(C)(O)C(C)(C)OB(OC(C)(C)C(C)(C)O)c1cc(Cl)cnc1Cl	128 µg/mL
COc1ccc(B(O)O)cc1	> 128 µg/mL
O=Cc1ccc2ccccc2c1	> 128 µg/mL
O=Cc1ccc(B(O)O)cc1Cl	32 µg/mL
O=Cc1cnc2ccccc2c1	> 128 µg/mL
Oc1ccccc1Br	> 128 µg/mL

Dear reader, for each entry below, please note its MIC.
1. O=C(O)c1cnc2ccccc2c1
2. OB(O)c1ccc(Cl)cc1
3. O=Cc1ccccc1Cl
4. Oc1ccc(Br)nc1
5. Cc1cc(B(O)O)cnc1Cl
6. O=Cc1ccc(B(O)O)cc1C(F)(F)F
7. O=C(O)c1ccc(Br)nc1

Reply text:
1. > 128 µg/mL
2. 64 µg/mL
3. > 128 µg/mL
4. > 128 µg/mL
5. > 128 µg/mL
6. 32 µg/mL
7. > 128 µg/mL

Would you be so kind as to report MIC for each listed record?
1. O=C(O)c1ccc(Cl)nc1
2. Cc1cc(B(O)O)ccc1Cl

Reply text:
1. > 128 µg/mL
2. > 128 µg/mL
